All values here come from patent US11597708B2.

Biological target: HSF1 (Homo sapiens, UniProt Q00613)
Construct: functionally linked to an hsp70b promoter and therefore controlled by endogenous HSF1; endogenous in cells; host or cells: HeLa cells / HeLa-derived cell line Z74
Sequence (Q00613 whole entry): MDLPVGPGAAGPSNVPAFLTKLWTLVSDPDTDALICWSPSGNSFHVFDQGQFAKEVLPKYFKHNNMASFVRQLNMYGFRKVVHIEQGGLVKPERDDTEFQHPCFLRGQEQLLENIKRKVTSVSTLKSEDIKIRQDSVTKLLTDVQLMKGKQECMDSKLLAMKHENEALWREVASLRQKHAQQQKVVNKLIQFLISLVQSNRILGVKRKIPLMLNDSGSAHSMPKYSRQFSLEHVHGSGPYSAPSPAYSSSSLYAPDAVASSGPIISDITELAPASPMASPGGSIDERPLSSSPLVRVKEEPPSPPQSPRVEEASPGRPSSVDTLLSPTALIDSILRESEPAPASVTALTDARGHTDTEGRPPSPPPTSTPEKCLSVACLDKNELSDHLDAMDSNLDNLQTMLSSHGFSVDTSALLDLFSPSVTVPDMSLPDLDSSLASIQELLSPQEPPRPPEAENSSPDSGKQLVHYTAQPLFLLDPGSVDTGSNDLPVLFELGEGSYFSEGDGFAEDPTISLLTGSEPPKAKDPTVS
Test: Z74 cell-based reporter assay: heat-induced RLuc expression controlled by endogenous HSF1
Conditions: Z74 cells; 25 μM IHSF; 2 h exposure, 43° C. 30 min, 6 h at 37° C.; read-out: Inhibition of HSF1 activity at 25 μM IHSF [RLuc] (%)
parameterMeasured: inhibition at 25 µM (%)

{"smilesNotation": "CCOC(=O)/C=C/C(=O)Nc1ncc(-c2ccccc2C)s1", "measureUnit": "%", "recordedNumber": 72}
{"smilesNotation": "CCOC(=O)/C=C/C(=O)Nc1nc(C(=O)OC)c(-c2ccccc2)s1", "measureUnit": "%", "recordedNumber": 96}
{"smilesNotation": "CCOC(=O)/C=C/C(=O)Nc1nc(C)c(-c2ccccc2)s1", "measureUnit": "%", "recordedNumber": 92}

###

Target: HSF1 (Homo sapiens)
Construct: functionally linked to an hsp70b promoter and therefore controlled by endogenous HSF1; endogenous in cells; host or cells: HeLa cells / HeLa-derived cell line Z74
Assay: Z74 cell-based reporter assay: heat-induced RLuc expression controlled by endogenous HSF1
Settings: Z74 cells; 12.5 μM IHSF; negative values marked *: compound enhanced rLuc activity; read-out: Inhibition of HSF1 activity at 12.5 μM IHSF [RLuc] (%)
parameterMeasured: inhibition at 12.5 µM (%)

(a) CCOC(=O)/C=C/C(=O)Nc1ccnc(-c2ccccc2)c1
(b) CCN(CC)C(=O)/C=C/C(=O)Nc1nc(C)cs1
(c) CCOC(=O)/C=C/C(=O)Nc1cc(-c2ccccc2)cs1
# ascending order, key=inhibition at 12.5 µM Put the labels in the requested order and write them down.
b, c, a

(A) CCOC(=O)/C=C/C(=O)Nc1ccnc(-c2ccccc2C)c1
(B) CCOC(=O)/C=C/C(=O)Nc1nc(CC)c(-c2ccccc2)s1
(C) CCOC(=O)/C=C/C(=O)N(CCc1ccncc1)c1nccs1
(D) CCOC(=O)/C=C/C(=O)Nc1nc(-c2cccnc2)cs1
(E) CCCC(=O)/C=C/C(=O)Nc1nccs1 [IHSF 095, (E)-4-Oxo-N-(thiazol-2-yl)hept-2-enamide]
Order field: inhibition at 12.5 µM | Direction: descending (largest first) Put the labels in the requested order and write them down.
B, A, D, C, E
(B: 62%, A: 42%, D: 27%, C: 17%, E: 6%)

(1) CCOC(=O)/C=C/C(=O)Nc1nc(C(N)=O)c(-c2ccccc2)s1
(2) CCOC(=O)/C=C/C(=O)Nc1cc(C)no1
Recorded inhibition at 12.5 µM values differ for 1 and 2 ; which one is higher? Field: selected label. Fill in the label of the entry you choose.
1
(1: 53%, 2: 33%)

(a) CCOC(=O)/C=C/C(=O)Nc1nc2ccccc2s1
(b) CCOC(=O)/C=C/C(=O)N(CCc1ccccn1)c1nccs1
Recorded inhibition at 12.5 µM values differ for a and b ; which one is higher? Field: selected label. Fill in the label of the entry you choose.
a
(a: 56%, b: 13%)

(I) CCOC(=O)/C=C/C(=O)Nc1nc(C)c(C)s1
(II) CCOC(=O)/C=C/C(=O)Nc1nncs1
Input pair: I , II . Output: entry with lower inhibition at 12.5 µM. Field: selected label. Fill in the label of the entry you choose.
II
(II: 20%, I: 57%)

(a) CCOC(=O)/C=C/C(=O)Nc1nc(C(=O)OC)c(-c2ccccc2)s1
(b) CCOC(=O)/C=C/C(=O)Nc1ncc(-c2ccccc2C)s1
Input pair: a , b . Output: entry with lower inhibition at 12.5 µM. Field: selected label. Fill in the label of the entry you choose.
b

(a) CCOC(=O)/C=C/C(=O)Nc1ccncc1C
(b) CCOC(=O)/C=C/C(=O)Nc1ncc(C#N)s1
Input pair: a , b . Output: entry with lower inhibition at 12.5 µM. Field: selected label. Fill in the label of the entry you choose.
a
(a: 24%, b: 40%)

(1) CC(C)OC(=O)/C=C/C(=O)Nc1nccs1
(2) CCOC(=O)/C=C/C(=O)Nc1ncco1
(3) CCOC(=O)/C=C/C(=O)Nc1nc(-c2ccccc2)cs1
(4) CCNC(=O)/C=C/C(=O)Nc1nccs1
Sort entries by inhibition at 12.5 µM from minimum to maximum value. Put the labels in the requested order and write them down.
2, 4, 1, 3
(2: 0%, 4: 5%, 1: 13%, 3: 68%)
